Source of measurements: the supplement of paper PMC7125110

B1: glmS ribozyme (parent)
chain: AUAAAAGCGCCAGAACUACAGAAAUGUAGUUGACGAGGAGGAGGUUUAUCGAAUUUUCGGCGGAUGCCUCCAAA

# Variants of: B1
# Measurement Protocol: self-cleavage kobs at 40 uM GlcN6P; higher = faster cleavage; RNA array
# Measurement Context: with glucosamine-6-phosphate
Variants at the floor of the assay were thinned out.
Readout: self-cleavage kobs at 40 uM GlcN6P

{"Seq Text": "AUAAAAGCGCCAGAACUACAGAAAUGUAGUUGACGAGGAGGAGGUUUAUCGAUUUUUCGGCGGAUGCCCCCAAA [A53U U69C]", "self-cleavage kobs at 40 uM GlcN6P": "0.000317 s⁻¹"}
{"Seq Text": "AUAAAAGCGCCAGAACUACAGAAAUGUAGUUGACGAGGAGGAGGUUUAUGGCAUUUUCGGCGGAUGCCACCAAA [C50G A52C U69A]", "self-cleavage kobs at 40 uM GlcN6P": "8.7e-05 s⁻¹"}
{"Seq Text": "AUAAAAGCGCCAGAACUACAGAAAUGUAGUUGACGAGGAGUAGGUUUAUCGACUUUUCGGCGGAUGCCUCCAAA [G41U A53C]", "self-cleavage kobs at 40 uM GlcN6P": "< 1e-05 s⁻¹"}
{"Seq Text": "AUAAAAGCGCCAGAACUACAGAAAUGUAGUUGACGAGGCGGAGGUUUAUCGAAAUUUCGGCGGAUGCCUCCAAA [A39C U54A]", "self-cleavage kobs at 40 uM GlcN6P": "0.000143 s⁻¹"}

Lab book: self-cleavage kobs at 40 uM GlcN6P of AUAAAAGCGCCAGAACUACAGAAAUGUAGUUGACGAGUAGGAGGUUUAUCGAAUUUUCGGCGGAUGCCGCCAAA [G38U U69G] noted as 0.000121 s⁻¹

Per the records, this variant ( AUAAAAGCGCCAGAACUACAGAAAUGUAGUUGACGAGGAGAAGGUUUAUAGAAUUUUCGGCGGAUGGCUCCAAA [G41A C50A C67G] ) has self-cleavage kobs at 40 uM GlcN6P equal to < 1e-05 s⁻¹

# self-cleavage kobs at 40 uM GlcN6P (variant: AUAAAAGCGCCAGAACUACAGAAAUGUAGUCGACGAGGAGGAGGUUUAUCGAAUUUUCGGCGGAUACCUCCAAA [U31C G66A] ) is 6.95e-05 s⁻¹
